Listing of entries alongside the reported melting point.

- COMPOUND: "Cc1nc(C(=O)NN(C)C)c2n1-c1ccc(Cl)cc1C(c1ccccc1F)NC2 (stereo not drawn)"
  melting point: "218 to 219 °C"
- COMPOUND: "CNC(=O)c1ccccc1Nc1nc(Nc2ccc3c(c2)COCC2CCCCN32)ncc1Cl (stereo not drawn)"
  melting point: "220 to 221 °C"
- COMPOUND: "Cc1nc(Cc2ccccc2)cc(C(=O)O)c1OCCCN(C)C"
  melting point: "157 °C"
- COMPOUND: "O=c1ncc(Cl)cn1CC(O)CO (stereo not drawn)"
  melting point: "136 to 138 °C"
- COMPOUND: "CC(=O)c1cn(C)cc(-c2cccc(Cl)c2)c1=O"
  melting point: "175 to 177 °C"
- COMPOUND: "CCSc1c(Cl)c(C(=O)O)c(C(O)=NC)c(Cl)c1SCC"
  melting point: "154 to 155 °C"
- COMPOUND: "O=C(O)COc1ccc(C(=O)CCN2CCN(c3ccncc3)CC2)cc1"
  melting point: "238 to 239 °C"
- COMPOUND: "COc1ccc(C=CC(=O)c2ccc(OCC(O)CN3CCN(c4ccccc4)CC3)cc2)cc1OC (stereo not drawn)"
  melting point: "126 to 127 °C"

Quick one: melting point for CCCCCCOc1ccc(C(=O)Nc2ccccc2Oc2cccc(OCc3nnn[nH]3)c2)cc1 ?
158 to 159 °C

Quick one: melting point for CC(C)(C)c1ccc(/C=C/CO[Si](C)(C)C(C)(C)C)cc1[N+](=O)[O-] ?
33 to 34 °C

Quick one: melting point for COc1cccc(Cc2cc3cccc(-c4cccc(C(=O)O)c4)c3o2)c1 ?
127 to 129 °C

Quick one: melting point for COc1cc2c(cc1OC)CN(c1nc(N3CCc4cc(OC)c(OC)cc4C3)nc(N3CCc4cc(OC)c(OC)cc4C3)n1)CC2 ?
166 to 169 °C

----------
MEASURED PARAMETER: melting point

Use these answered entries as a reference point.
- COMPOUND: "COc1nc2ncnn2c(N2CCC(C)CC2)c1-c1ccc(F)cc1Cl"
  MEASURED PARAMETER: "melting point"
  MEASURED VALUE: "186 °C"
- COMPOUND: "CN(C)C(=O)c1cn(Cc2ccccc2Cl)nn1"
  MEASURED PARAMETER: "melting point"
  MEASURED VALUE: "120 to 121 °C"
- COMPOUND: "CC(C)(C)[C@H]1CC[C@H](CC2=C(Cl)C(=O)c3ccccc3C2=O)CC1"
  MEASURED PARAMETER: "melting point"
  MEASURED VALUE: "154 to 156 °C"
- COMPOUND: "O=C(c1ccc(Oc2ccccc2)c([N+](=O)[O-])c1)c1ccc(Oc2ccccc2)c([N+](=O)[O-])c1"
  MEASURED PARAMETER: "melting point"
  MEASURED VALUE: "111 to 113 °C"
- COMPOUND: "Cc1[nH]c(=O)n(CCC(C(=O)NO)N(C)S(=O)(=O)c2ccc(Oc3ccccc3)cc2)c(=O)c1F (stereo unspecified)"
  MEASURED PARAMETER: "melting point"
  MEASURED VALUE: "196 to 198 °C"

Quick one: melting point for Cc1cccc2ncn(C(C)C(O)(Cn3cncn3)c3ccc(F)cc3F)c(=O)c12 (stereo unspecified) ?
87 to 89 °C

Source listed as a melting point compilation (Tetko et al.; mined from patent text by program, amines drawn as free bases though some values may be those of a salt).
